- Assay Overview: Solubility in simulated gastric/intestinal fluids and pH media
- Type: physicochemical
- Condition Context: fasted-state simulated intestinal fluid (Phares FaSSIF), pH 6.5, fassif, thermodynamic from solid, Batch 1, Phares FaSSif pH 6.5, 0.5 hr
Where a name gives a salt, the structure may show the parent alone.
Measured Quantity: solubility at 0.5 hr (µg/mL)
Answers are plain numbers, in µg/mL.

Prompt line: Fill in solubility at 0.5 hr for record Cc1c(F)cccc1NC(=O)Nc1ccc(Cl)c(S(=O)(=O)[C@H]2CCCNC2)c1O [HBr Salt]
Response line: 420

---

- Assay Overview: Solubility in simulated gastric/intestinal fluids and pH media
- Format: physicochemical
- Condition Context: fasted-state simulated intestinal fluid (Phares FaSSIF), pH 6.5, fassif, thermodynamic from solid, Batch 3, Phares FaSSif pH 6.5, 4 hr
Where a name gives a salt, the structure may show the parent alone.
Measured Quantity: solubility at 4 hr

Prompt line: Fill in solubility at 4 hr for record Cc1c(F)cccc1NC(=O)Nc1ccc(Cl)c(S(=O)(=O)[C@H]2CCCNC2)c1O [HBr Salt]
Response line: 227 µg/mL
